# protocolDescription: chemical genetic growth profiling, strain panel (AID 1159580);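 further: tested at 20 µM; growth read once vehicle control cultures reached saturation at 30 °C; 1 = growth at the plate median or of vehicle wells; lower values mean less growth of the strain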
# assayConditions: S. cerevisiae deletion strains, growth OD, locus YPR141C, strain kar3, active compounds read low
Out of some 5,500 compounds screened, about 2,000 (36%) were called active. Inconclusive results (about 18%) are left out. This is one part of the list.
measurementKind: normalized growth

>>> valuemeasured("C[n+]1ccccc1/C=N/O")
0.997
>>> valuemeasured("CC12CCC(=O)C=C1CCC1C2[C@@H](O)CC2(C)C1CC[C@]2(O)C(=O)COP(=O)(O)O (some centres undefined)")
1.01
>>> valuemeasured("CC(C)CCCC(C)C1CC[C@@]2(C)C3=C(CC[C@]12C)[C@@]1(C)CC[C@H](O)C(C)(C)C1CC3 (some centres undefined)")
0.993
>>> valuemeasured("CNNC")
1.01
>>> valuemeasured("CC(C)=CCCC(C)C1CC[C@@]2(C)C3=C(CC[C@]12C)C1(C)CC[C@H](O)C(C)(C)C1CC3 (some centres undefined)")
1.04
>>> valuemeasured("NC(Cn1ccc(=O)c(O)c1)C(=O)O (centres undefined)")
0.993
>>> valuemeasured("CS(=O)(=O)c1ccc([C@@H](O)[C@@H](CO)NC(=O)C(Cl)Cl)cc1")
0.971
>>> valuemeasured("Cc1c(C)c2c(c(C)c1O)CCC(C)(CCCC(C)CCCC(C)CCCC(C)C)O2 (centres undefined)")
1
>>> valuemeasured("CO[C@H]1CC(O[C@@H]2/C(C)=C/C[C@@H]3C[C@@H](C[C@]4(CC[C@H](C)[C@@H](C5CCCCC5)O4)O3)OC(=O)[C@@H]3C=C(C)/C(=N\\O)[C@H]4OC/C(=C\\C=C\\[C@@H]2C)[C@]43O)O[C@@H](C)C1O (some centres undefined)")
0.992
